System: H3255 cells
Assay: MTT cell growth inhibition assay
Assay type: cell-based
Details: Homo sapiens, NCI-H3255, H3255 cells (EGFR L858R mutant), 48 h
endpoint: IC50 (nM)
Give the quantity in nM, number only.

[in] # IC50 lookup, item FCCOCCOCCOCCOc1cc2ncnc(Nc3ccc(F)c(Cl)c3)c2cc1OCCCN1CCOCC1 [F-IRS]
[out] 13.1
